- Target or test system: Adenosylhomocysteinase (Homo sapiens, UniProt P23526)
- Sequence (P23526 whole entry): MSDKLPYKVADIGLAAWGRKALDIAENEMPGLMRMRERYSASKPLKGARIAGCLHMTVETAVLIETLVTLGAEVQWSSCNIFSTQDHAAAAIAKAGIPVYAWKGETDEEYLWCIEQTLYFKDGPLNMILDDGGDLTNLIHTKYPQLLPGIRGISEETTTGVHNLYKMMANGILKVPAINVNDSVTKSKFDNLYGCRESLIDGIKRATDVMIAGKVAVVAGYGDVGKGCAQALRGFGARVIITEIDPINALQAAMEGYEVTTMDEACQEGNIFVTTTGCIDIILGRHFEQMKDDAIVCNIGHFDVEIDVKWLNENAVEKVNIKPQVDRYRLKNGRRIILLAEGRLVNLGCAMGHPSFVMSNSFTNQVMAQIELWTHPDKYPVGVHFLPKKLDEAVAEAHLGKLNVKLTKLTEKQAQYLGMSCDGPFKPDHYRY
- Assay explanation: Inhibitory potency against recombinant human placental S-Adenosyl-L-homocysteine Hydrolase
Property measured: Ki (nM)

* Nc1ncnc2c1ncn2[C@H]1OC(/C=N/O)C(O)[C@@H]1O (single isomer, unassigned) | 670
